Assay: Inhibition of Zea mays BMS cells Adenylosuccinate synthase assessed as adenylosuccinate formation
Type: cell-based
Settings: read-out: I50
measurement.name: IC50 (nM)
Give bare numbers, in nM.

Exercise: Fill in IC50 for record `O=c1[nH]ncn1[C@@H]1O[C@H](COP(=O)(O)O)[C@@H](O)[C@H]1O`
Key: 980

* * *

System: Arabidopsis thaliana
Experiment: Metabolite reversal in Arabidopsis thaliana assessed as root growth inhibition in presence of adenine and guanine
Assay type: functional, organism-based
Settings: Arabidopsis thaliana; read-out: I50
measurement.name: IC50 (µM)
Give bare numbers, in µM.

Exercise: Fill in IC50 for record `O=c1[nH]ncn1[C@@H]1O[C@H](CO)[C@@H](O)[C@H]1O`
Key: 11.5
